Target: T1, MATK SH2 domain (human, UniProt P42679 122-211)
T1 construct: MATK, human; source: bacterial expression, purified
T1 sequence (looked up): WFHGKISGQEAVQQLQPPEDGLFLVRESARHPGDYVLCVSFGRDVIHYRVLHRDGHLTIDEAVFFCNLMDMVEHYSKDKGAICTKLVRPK
Test: peptide or protein array; SH2/PTB proteins spotted on aldehyde slides, rhodamine peptide titrated in buffer B (20 mM HEPES, 100 mM KCl, 0.1% Tween-20, 5 mM DTT, pH 7.8), 1 h at room temperature; replicate assays
Settings: both partners purified
Non-standard residues stand in square brackets, D forms with d. No end group written: not given here. pY = N[C@@H](Cc1ccc(OP(=O)(O)O)cc1)C(=O)O; Rhodamine = not defined here
Readout: Kd
Give the number first and the unit second.

stdin: Using known records, supply Kd for Rhodamine-ETDG[pY]VAPLTCSD (reading uncertain) [ErbB2 pY1127 phosphopeptide, rhodamine-labelled, for protein microarrays]
stdout: 4.4 µM
